Quick list: IC50 per entry.
target: recombinant human XIAP-BIR3 protein (Homo sapiens, UniProt P98170); construct: recombinant human XIAP-BIR3 protein; purchased Reaction biology APT-11-374; assay: Recombinant human XIAP-BIR3 biochemical assay (HTRF, peptide displacement); details: 3.7 nM XIAP-BIR3, 7.6 nM AbuRPF-K(5-Fam)-NH2 peptide, read-out: Protein binding IC50 (nM) XIAP
Sequence (P98170 241-356 limits assumed): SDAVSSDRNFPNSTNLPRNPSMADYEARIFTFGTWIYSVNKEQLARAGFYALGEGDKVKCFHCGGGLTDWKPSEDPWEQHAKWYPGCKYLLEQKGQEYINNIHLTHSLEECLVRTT
Form entry: value (nM) — number only.

Record excerpt, results attached:
>  <smilesNotation>
COC[C@H]1COc2nc(CO)c(Cc3ccc(F)cc3)cc2N1C(=O)CN1C[C@@H](C)NC[C@@H]1CN1CCOC[C@H]1C

>  <assayedTarget>
recombinant human XIAP-BIR3 protein (Homo sapiens, UniProt P98170)

>  <IC50 (nM)>
95

$$$$
>  <smilesNotation>
C[C@@H]1CN(CC(=O)N2CCOc3nc(C4CC4)c(Cc4ccc(F)cc4)cc32)[C@@H](CN2CCOC[C@H]2C)CN1

>  <assayedTarget>
recombinant human XIAP-BIR3 protein (Homo sapiens, UniProt P98170)

>  <IC50 (nM)>
61

$$$$

// lookup IC50 for C[C@@H]1CN(CC(=O)N2c3cc(Cc4ccc(F)cc4)c(N)nc3OC[C@@H]2C)[C@@H](CN2[C@H](C)COC[C@H]2C)CN1
6.9
